Cited source: paper PMC10397247

Biological target: T1, 4H457-bN
T1 chain: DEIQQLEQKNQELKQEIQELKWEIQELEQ
Assay: two-hybrid library CCNG1;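 further: natural log of median RNA to DNA barcode read ratio; higher means stronger binding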
Mark each entry criterion met if its interaction score sits below -0.8, and criterion not met for all others.

See these solved cases before continuing.
{"binder": "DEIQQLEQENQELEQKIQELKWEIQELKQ [4H170-bN]", "assigned.label": "criterion not met"}
{"binder": "DEIQQLEQEIQELKQKNQELEWKIQELKQ [4H118-bN]", "assigned.label": "criterion met"}
{"binder": "DKIQQLKQKNQELKQEIQELEWEIQELKQ [4H3010-bN]", "assigned.label": "criterion not met"}
{"binder": "DKIQQLKQEIQELKQKNQELEWEIQELEQ [4H2673-bN]", "assigned.label": "criterion met"}
{"binder": "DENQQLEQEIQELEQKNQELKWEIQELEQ [4H1081-bN]", "assigned.label": "criterion met"}
{"binder": "DEIQQLEQKIQELKQENQELKWEIQELKQ [4H346-bN]", "assigned.label": "criterion met"}

Problem: Regarding DKIQQLKQENQELEQEIQELKWKIQELKQ [4H2702-bN] , kindly confirm whether its interaction score is beneath -0.8.
Result: criterion not met
